Several reports have described pIC50 for Vascular endothelial growth factor receptor 2 (Homo sapiens, UniProt P35968); a selection of those results is presented here.
pIC50: −log10 of the molar value.

SMILES_REPRESENTATION	STUDY_TARGET	PROPERTY_LABEL	EXPERIMENTAL_VALUE
COc1cc2nccc(Oc3ccc(NC(=O)c4c(C)nc(C)c(OC)c4O)cc3F)c2nc1OC	Vascular endothelial growth factor receptor 2 (Homo sapiens, UniProt P35968)	pIC50	≥ 7.00

[Q] Any idea what its pIC50 is? The compound is CCCc1ccc(S(=O)(=O)Nc2ccc(F)c(C(=O)c3c[nH]c4ncc(-c5nccn5C)cc34)c2F)cc1
[A] ≥ 5.00

[Q] Also need O=C(O)Cc1cccc(Oc2cnc3[nH]cc(C(=O)c4ccc(F)cc4Cl)c3c2)c1 , thanks.
[A] ≥ 5.00

[Q] Also need NC(=O)Cn1ccc(-c2cc(Oc3cccc(NC(=O)Nc4ccc(Cl)c(C(F)(F)F)c4)c3)ncn2)n1 , thanks.
[A] ≥ 5.00

[Q] Also need COc1ccc(CNc2ccc(Cc3c[nH]c4ncncc34)c(F)n2)cn1 , thanks.
[A] ≥ 5.00

[Q] Also need COc1cc(-c2cc3nccc(-c4c[nH]nc4C)c3o2)cc(OC)c1OC , thanks.
[A] 5.52 to 6.52

[Q] Also need Cn1cc(-c2cc(Oc3cccc(NC(=O)c4ccc(C#N)cc4)c3)ccn2)cn1 , thanks.
[A] < 5.00

[Q] Also need N#Cc1cnc2[nH]cc(C(=O)c3cccc(NS(=O)(=O)Cc4ccncc4)c3F)c2c1 , thanks.
[A] ≥ 5.00
